Every entry's value here was drawn from patent US8470867B2.

Test System: σ1-receptor (Cavia porcellus)
Construct: guinea pig brains were homogenized; from tissue; host or cells: guinea pig brain membranes
Sequence (Q60492 whole entry): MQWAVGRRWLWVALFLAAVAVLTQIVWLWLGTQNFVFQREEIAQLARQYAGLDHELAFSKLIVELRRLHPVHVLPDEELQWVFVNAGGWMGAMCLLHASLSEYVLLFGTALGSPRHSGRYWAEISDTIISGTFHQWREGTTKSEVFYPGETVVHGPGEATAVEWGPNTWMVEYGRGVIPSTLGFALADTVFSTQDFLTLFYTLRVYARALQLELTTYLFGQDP
Test: Sigma-1 receptor binding, [3H](+)-pentazocine, brain membranes
Set-up: species or system guinea pig
Recorded Conditions: 10^−7 M
Observable: inhibition at 0.1 µM (%)

INSERT INTO results (compound, test_system, result_number) VALUES
  ('Cc1cc(OCCCCN2CCN(C)CC2)nn1-c1ccc(Cl)c(Cl)c1.Cl.Cl [Example 25, dihydrochloride]', 'σ1-receptor (Cavia porcellus)', 94.2),
  ('CC(C)c1cc(OCCCN2CCCC2)nn1-c1ccc(Cl)c(Cl)c1.Cl [Example 34, hydrochloride]', 'σ1-receptor (Cavia porcellus)', 104);

(A) Cc1cc(OCCN2CCCC2)nn1-c1ccc2ccccc2c1.Cl [Example 64, hydrochloride]
(B) COc1ccc(-n2nc(OCCN3CCCCC3)cc2C)cc1
Lookup: Compare the recorded inhibition at 0.1 µM of A and B ; state which is larger. Your answer should be the label attached to the chosen record.
Found: A
(A: 105%, B: 48.9%)
